These data points were gathered from patent US8987414.

- Experimental System: T1, MDMX (In-house, 40 kD) (UniProt O15151 1-134, limits assumed)
- T1 construct: Construct used in the FP assays is described only as in-house, 40 kD; also called MDM4
- T1 sequence (looked up): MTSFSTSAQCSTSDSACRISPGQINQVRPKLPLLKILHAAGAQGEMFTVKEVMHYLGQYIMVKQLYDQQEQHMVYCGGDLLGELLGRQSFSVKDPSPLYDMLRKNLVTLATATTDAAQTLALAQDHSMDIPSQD
- Test Details: competitive fluorescence polarization vs FAM-labeled linear peptide; grade of IC50 (MDMX); scale in paragraph 664: ++++ = <=10 nM
Readout Kind: IC50

Q: Can you share its IC50? I mean this binder: LTFXAYWAQLXAAXA (N-terminal acetyl (Ac); position 4 = $4rn6 (alpha-Me R-azide 1,4 triazole, 6 carbon) crosslinked to position 11 = $4a5 (alpha-Me alkyne 1,4 triazole, 5 carbon); position 14 = Nle (norleucine); C-terminal amide (NH2), Triazole-crosslinked macrocycle of Formula I; also called Ac-LTF$4rn6AYWAQL$4a5AANleA-NH2) [SP-449]
Result: ≤ 10 nM
